- method.description: doxorubicin toxicity protection in MRP-1 cells – H69AR cells, CellTiter-Glo, duplicate, MRP-1 activator project, pilot screen (AID 807);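 note: compound pretreatment 18-22 h then 72 h combined with doxorubicin; 0% = doxorubicin alone and 100% = vehicle without doxorubicin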
- condition.set: H69AR viability with doxorubicin, CellTiter-Glo luminescence; at 10 µM; active compounds read high
List of viability increase values.
Provide the reading as a plain figure in %.

Solved entries (count: 4):
| compound | viability increase, % |
| --- | --- |
| Cn1c(C(C#N)/C(=N\S(=O)(=O)c2cccs2)c2ccccc2)nc2ccccc21 (stereo unspecified) | -1.15 |
| O=C1CN(C(=O)COc2ccccc2)CCN1 | -1.4 |
| CCOC(=O)c1ccc(NC(=O)C2C3C=CC(C3)C2C(=O)O)cc1 (stereo unspecified) | 0.55 |
| Nc1nc2n(n1)C(c1cccc(Br)c1)CC(c1ccc(F)cc1)N2 (stereo unspecified) | 0.72 |

## Input What value of measured viability increase is listed for COc1ccc(-c2[nH]c(-c3ccc(F)cc3)nc2SCC(=O)NCc2ccco2)cc1OC ?
## Output -2.49

## Input Item under review: CN(C)c1cc(NC(=O)CN2CCOCC2)c2ccccc2n1 . Reported viability increase?
## Output -1.8

## Input Report viability increase for COC(=O)C1C(=O)c2c([nH]c(C(=O)OC3CCCCCC3)c2C)CC1C (stereo unspecified) please.
## Output -2.6

## Input Form field: reported viability increase of Cn1ccnc1C(O)c1ccco1 (stereo unspecified)
## Output -0.09

## Input # lookup: viability increase of O=C(Nc1ccc(N2CCCC2)cc1)c1ccc(Br)o1
## Output -0.48

## Input Item CCN(CC)CCNC(=O)c1cc2c(-c3ccc(Cl)cc3)nn(C)c2s1 has what recorded viability increase?
## Output -8.35

## Input Record request: viability increase value, item CCN1CCN(C(=O)c2cn(CC)c3ccc(S(=O)(=O)N(C)C)cc3c2=O)CC1
## Output -2.35

----------
// growth inhibition lookup, one value per entry
- method.description: S. cerevisiae growth inhibition in permissive medium (OD615), pilot counter-assay for S. cerevisiae lifespan shortening project, permissive growth control (AID 705)
- condition.set: OD615, 24 h, at 10 µM, active compounds read high
Answer in %, number only, no unit symbol.

The examples below pair each entry with its known result.
| compound | growth inhibition, % |
| --- | --- |
| Cc1nc2ccccc2c2oc(C(=O)NCC3COc4ccccc4O3)cc12 (stereo unspecified) | -0.145 |
| CCOc1ccc(S(=O)(=O)n2ccnc2)c2ccccc12 | -2.9 |
| O=C(NCc1cccnc1)c1cccc(S(=O)(=O)N2CCOCC2)c1 | -7.59 |
| CCOC(=O)c1ccc(NC(=O)C2C3C=CC(C3)C2C(=O)O)cc1 (stereo unspecified) | 5.27 |
| Cn1c(C(=O)Nc2ccc3c(c2)OCO3)cc2c(=O)n(C)c3ccccc3c21 | -4.94 |

## Input Field request: growth inhibition | item: COc1cccc(-c2nc(CS(=O)(=O)CC(=O)NCc3ccc(Cl)cc3)c(C)o2)c1
## Output -8.85

## Input // lookup growth inhibition for Cc1ccc(C)c2[nH]c(=O)c(CCNC(=O)CC(C)(C)C)cc12
## Output -4.09

## Input growth inhibition lookup needed for COc1c(C(=O)Nc2c(C)n(C)n(-c3ccccc3)c2=O)ccc2ccccc12 , thanks.
## Output -2.42

## Input Data request, read-out growth inhibition, for O=C(Nc1ccccc1-c1nc2ccccc2s1)c1ccco1
## Output -6.38

## Input I would be grateful if you could share the reported growth inhibition for CCOC(=O)CCc1c(C)nc2cc(-c3ccc(F)cc3)[nH]n2c1=O .
## Output -13.1

## Input Name the recorded growth inhibition for CC(=O)Nc1nnc(SCC(=O)NCC2CCCO2)s1 (stereo unspecified) .
## Output -2.62
